Parameter: log10 of IC50. Scope: all listed entries.
Biological target: PBP2b/H (Bacillus subtilis)
Sequence (Q07868 whole entry): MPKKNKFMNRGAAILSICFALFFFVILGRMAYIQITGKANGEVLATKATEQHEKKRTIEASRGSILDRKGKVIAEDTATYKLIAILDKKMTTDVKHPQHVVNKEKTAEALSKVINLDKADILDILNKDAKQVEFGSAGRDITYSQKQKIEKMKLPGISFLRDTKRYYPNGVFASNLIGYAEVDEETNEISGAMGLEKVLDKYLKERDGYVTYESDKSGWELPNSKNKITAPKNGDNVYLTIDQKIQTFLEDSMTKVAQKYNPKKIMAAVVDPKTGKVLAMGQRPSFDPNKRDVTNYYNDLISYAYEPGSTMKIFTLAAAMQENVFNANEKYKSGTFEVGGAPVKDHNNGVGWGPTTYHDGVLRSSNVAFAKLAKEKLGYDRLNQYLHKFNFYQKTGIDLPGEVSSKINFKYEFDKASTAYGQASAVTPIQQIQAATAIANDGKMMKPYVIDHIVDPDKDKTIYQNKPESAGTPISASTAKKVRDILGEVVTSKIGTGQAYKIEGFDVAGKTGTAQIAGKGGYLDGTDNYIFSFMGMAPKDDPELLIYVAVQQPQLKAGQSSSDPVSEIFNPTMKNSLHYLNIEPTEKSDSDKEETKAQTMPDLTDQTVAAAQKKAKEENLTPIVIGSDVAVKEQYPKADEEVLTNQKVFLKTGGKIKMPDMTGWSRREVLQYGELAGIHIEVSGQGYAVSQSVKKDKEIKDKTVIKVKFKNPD
Assay: Fluorescent whole cell β-lactam titration with Boc-FL readout, SDS-PAGE
Values reflect log10 of reported IC50 (nM).

Example compounds with recorded log10 of IC50:
1) CO/N=C(\C(=O)N[C@@H]1C(=O)N2C(C(=O)O)=C(COC(N)=O)CS[C@H]12)c1ccco1 ... 2.28
2) Cc1onc(-c2ccccc2Cl)c1C(=O)N[C@@H]1C(=O)N2[C@@H]1SC(C)(C)[C@@H]2C(=O)O ... 2.47
3) CO/N=C(\C(=O)N[C@@H]1C(=O)N2C(C(=O)O)=C(CSc3nc(=O)c(=O)[nH]n3C)CS[C@H]12)c1csc(N)n1 ... 2.08
4) CC1(C)S[C@@H]2[C@H](NC(=O)[C@H](N)c3ccccc3)C(=O)N2[C@H]1C(=O)O ... 1.43
5) CC1(C)S[C@@H]2[C@H](/N=C/N3CCCCCC3)C(=O)N2[C@H]1C(=O)O ... 3.52

query: What value of measured log10 of IC50 is listed for `CO[C@@]1(NC(=O)Cc2cccs2)C(=O)N2C(C(=O)O)=C(COC(N)=O)CS[C@@H]21` ?
result: 2.65

query: What value of measured log10 of IC50 is listed for `Cc1onc(-c2ccccc2)c1C(=O)N[C@@H]1C(=O)N2[C@@H]1SC(C)(C)[C@@H]2C(=O)O` ?
result: 2.18

query: What value of measured log10 of IC50 is listed for `CC(=O)OCC1=C(C(=O)O)N2C(=O)[C@@H](NC(=O)Cc3cccs3)[C@H]2SC1` ?
result: 1.28

---

Target: PBP5 (Bacillus subtilis)
Sequence (P08750 32-443): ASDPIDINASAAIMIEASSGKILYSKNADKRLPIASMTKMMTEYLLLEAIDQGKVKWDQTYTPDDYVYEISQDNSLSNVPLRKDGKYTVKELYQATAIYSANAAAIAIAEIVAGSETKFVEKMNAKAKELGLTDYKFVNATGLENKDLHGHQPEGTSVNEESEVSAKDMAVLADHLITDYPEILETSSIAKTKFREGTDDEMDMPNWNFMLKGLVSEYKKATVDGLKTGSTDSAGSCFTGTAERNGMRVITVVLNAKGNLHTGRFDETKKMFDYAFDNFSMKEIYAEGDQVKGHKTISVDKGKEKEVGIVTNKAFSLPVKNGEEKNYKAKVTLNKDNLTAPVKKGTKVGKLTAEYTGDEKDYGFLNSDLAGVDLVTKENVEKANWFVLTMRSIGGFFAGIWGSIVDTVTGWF
Experiment: Fluorescent whole cell β-lactam titration with Boc-FL readout, SDS-PAGE
recorded-metric: IC50

query: What value of measured IC50 is listed for `Cc1onc(-c2ccccc2)c1C(=O)N[C@@H]1C(=O)N2[C@@H]1SC(C)(C)[C@@H]2C(=O)O` ?
result: > 2490 µM

query: What value of measured IC50 is listed for `CO/N=C(\C(=O)N[C@@H]1C(=O)N2C(C(=O)O)=C(COC(C)=O)CS[C@H]12)c1csc(N)n1` ?
result: > 2200 µM

query: What value of measured IC50 is listed for `NC(=O)c1cc[n+](CC2=C(C(=O)O)N3C(=O)[C@@H](NC(=O)[C@@H](c4ccccc4)S(=O)(=O)[O-])[C@H]3SC2)cc1` ?
result: > 1880 µM

---

MIC, B. subtilis PY79, per-entry values.
Quick note: give the figure in mg/L, leave out the unit.

1. CO/N=C(\C(=O)N[C@@H]1C(=O)N2C(C(=O)O)=C(COC(N)=O)CS[C@H]12)c1ccco1 [cefuroxime] ... 0.125
2. CC(=O)OCC1=C(C(=O)O)N2C(=O)[C@@H](NC(=O)Cc3cccs3)[C@H]2SC1 [cephalothin] ... 0.0312
3. CC1(C)S[C@@H]2[C@H](NC(=O)[C@H](N)c3ccc(O)cc3)C(=O)N2[C@H]1C(=O)O [amoxicillin] ... 4

query: What value of measured MIC is listed for C[C@@H](O)[C@H]1C(=O)N2C(C(=O)O)=C(S[C@@H]3CN[C@H](C(=O)N(C)C)C3)[C@H](C)[C@H]12 [meropenem] ?
result: 0.0625

query: What value of measured MIC is listed for CCN1CCN(C(=O)N[C@@H](C(=O)N[C@@H]2C(=O)N3[C@@H]2SC(C)(C)[C@@H]3C(=O)O)c2ccccc2)C(=O)C1=O [piperacillin] ?
result: 64

query: What value of measured MIC is listed for NC(=O)c1cc[n+](CC2=C(C(=O)O)N3C(=O)[C@@H](NC(=O)[C@@H](c4ccccc4)S(=O)(=O)[O-])[C@H]3SC2)cc1 [cefsulodin] ?
result: 8

query: What value of measured MIC is listed for CC1(C)S[C@@H]2[C@H](/N=C/N3CCCCCC3)C(=O)N2[C@H]1C(=O)O [mecillinam] ?
result: 16
